target: Mer (phospho-Mer, MERTK-transfected 293A cells) (Homo sapiens (Human))
Sequence (Q12866 21-999): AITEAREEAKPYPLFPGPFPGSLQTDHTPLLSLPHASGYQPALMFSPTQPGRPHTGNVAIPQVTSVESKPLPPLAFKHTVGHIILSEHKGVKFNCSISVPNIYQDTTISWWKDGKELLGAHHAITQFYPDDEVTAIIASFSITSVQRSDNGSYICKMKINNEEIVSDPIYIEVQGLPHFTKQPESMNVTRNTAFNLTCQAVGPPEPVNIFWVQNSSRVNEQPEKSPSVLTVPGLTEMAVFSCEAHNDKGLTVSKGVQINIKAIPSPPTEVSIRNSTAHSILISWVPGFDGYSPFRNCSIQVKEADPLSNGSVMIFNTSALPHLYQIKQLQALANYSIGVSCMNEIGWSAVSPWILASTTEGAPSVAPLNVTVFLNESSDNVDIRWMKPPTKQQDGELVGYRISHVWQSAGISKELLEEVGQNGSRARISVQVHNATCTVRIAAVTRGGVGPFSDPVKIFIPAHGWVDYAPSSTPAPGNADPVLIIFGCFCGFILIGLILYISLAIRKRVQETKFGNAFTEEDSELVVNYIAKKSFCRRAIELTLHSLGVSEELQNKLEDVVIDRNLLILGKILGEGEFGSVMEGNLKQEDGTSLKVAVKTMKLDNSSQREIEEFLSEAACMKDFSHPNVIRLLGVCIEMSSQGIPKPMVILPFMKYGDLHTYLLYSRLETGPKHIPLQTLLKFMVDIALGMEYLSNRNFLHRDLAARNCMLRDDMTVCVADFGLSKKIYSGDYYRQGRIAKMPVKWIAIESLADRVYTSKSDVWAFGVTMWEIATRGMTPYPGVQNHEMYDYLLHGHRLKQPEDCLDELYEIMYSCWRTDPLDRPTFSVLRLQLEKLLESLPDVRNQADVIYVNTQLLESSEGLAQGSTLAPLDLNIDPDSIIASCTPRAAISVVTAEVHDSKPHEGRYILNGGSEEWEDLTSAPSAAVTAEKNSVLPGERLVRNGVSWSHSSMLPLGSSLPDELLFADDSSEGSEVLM
assay protocol: Mer autophosphorylation ELISA in transient transfected 293A cells (Example H)
Assay type: cell-based
condition set: cellular activity; Mer autophosphorylation ELISA in transient transfected 293A cells
reported property: IC50

Task: Looking for the measured IC50 of COc1ccc2nccc(Oc3ccc(NC(=O)c4ccc(C)n(-c5ccc(F)cc5C)c4=O)cc3F)c2n1 [Compound 85] , can you help?
Result: < 100 nM

###

target: Human KDR (residues 790-1356) (Homo sapiens (Human), UniProt P35968)
Sequence (P35968 790-1356): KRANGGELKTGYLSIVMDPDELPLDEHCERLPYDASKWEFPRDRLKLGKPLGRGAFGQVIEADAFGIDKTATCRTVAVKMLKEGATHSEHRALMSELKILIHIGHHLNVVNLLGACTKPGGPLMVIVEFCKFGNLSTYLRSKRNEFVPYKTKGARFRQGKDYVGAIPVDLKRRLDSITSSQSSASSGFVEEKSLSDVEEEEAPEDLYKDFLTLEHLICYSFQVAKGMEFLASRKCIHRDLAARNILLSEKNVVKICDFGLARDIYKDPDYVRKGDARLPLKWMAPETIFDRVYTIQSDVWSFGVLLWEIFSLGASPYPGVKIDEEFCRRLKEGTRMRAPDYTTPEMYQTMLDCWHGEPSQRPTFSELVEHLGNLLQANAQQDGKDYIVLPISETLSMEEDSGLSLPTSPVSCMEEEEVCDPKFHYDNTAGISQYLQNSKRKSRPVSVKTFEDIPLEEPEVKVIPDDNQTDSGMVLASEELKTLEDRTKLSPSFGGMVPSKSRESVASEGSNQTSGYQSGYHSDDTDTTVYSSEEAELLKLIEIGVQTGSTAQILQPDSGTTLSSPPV
assay protocol: Human KDR kinase assay, HTRF KinEase (Example B-2)
Type: biochemical
condition set: protocol of Example B-2 (other compounds)
Structures can show the parent of a compound that is named as a salt.
reported property: IC50

Take a look at these entries with their results.
COc1cc2nccc(Oc3ccc(NC(=O)c4nn(C)c(C)c(-c5ccc(F)cc5)c4=O)cc3F)c2nc1OC : 100 to 300 nM
COc1cnc2c(Oc3ccc(NC(=O)c4c(C)c(Cl)c(C)n(-c5ccc(F)cc5)c4=O)cc3F)ccnc2c1 : > 300 nM
COc1ccc2nccc(Oc3ccc(NC(=O)c4ncc(C)n(-c5ccc(F)cc5)c4=O)cc3F)c2n1 : > 300 nM
CCc1cc2nccc(Oc3ccc(NC(=O)c4cnc(C)c(-c5ccc(F)cc5)c4O)cc3F)c2nc1OC : 100 to 300 nM
COc1cc2nccc(Oc3ccc(NC(=O)C4=C5CCCN5CC(c5ccc(F)cc5)C4=O)cc3F)c2nc1OC (single isomer, unassigned; enantiomer 1) [Compound 374] : > 300 nM
COc1cnc2c(Oc3ccc(NC(=O)c4cnc(C)c(-c5ccc(F)cc5C)c4O)cc3F)ccnc2c1 : 100 to 300 nM
COc1nc2c(Oc3ccc(NC(=O)c4cnc(C)c(-c5ccc(F)cc5)c4O)cc3F)ccnc2cc1Br : < 100 nM
Cc1nc2c(Oc3ccc(NC(=O)c4cn(C(C)C)c(C)c(-c5ccc(F)cc5)c4=O)cc3F)ccnc2cc1Br : > 300 nM
COc1cc2nccc(Oc3ccc(NC(=O)c4cnc(C)c(-c5ccc(F)cc5)c4O)cc3)c2nc1OC : < 100 nM
COCc1c(-c2ccc(F)cc2)c(=O)c(C(=O)Nc2ccc(Oc3ccnc4cc(OC)c(OC)nc34)c(F)c2)cn1C : > 300 nM

Task: Looking for the measured IC50 of COc1cc2nccc(Oc3ccc(NC(=O)c4cn(C(C)C)c(C)c(-c5cccc(F)c5)c4=O)cc3F)c2nc1OC [Compound 30, hydrochloride] , can you help?
Result: < 100 nM

Task: Same thing, different compound: Cc1ccn(-c2ccc(F)cc2)c(=O)c1C(=O)Nc1ccc(Oc2ccnc3cccnc23)c(F)c1
Result: > 300 nM

Task: Same thing, different compound: COc1cnc2c(Oc3ccc(NC(=O)c4nn(C)c(C)c(-c5ccc(F)cc5)c4=O)cc3F)ccnc2c1
Result: > 300 nM

Task: Same thing, different compound: COc1cc2nccc(Oc3ccc(NC(=O)c4cn(C)c(C)c(-c5ccc(F)cc5C)c4=O)cc3F)c2nc1OC
Result: 100 to 300 nM

Recorded values, source patent US12371428B2.
